targetEntity: HIV-1 reverse transcriptase (Human immunodeficiency virus 1, UniProt P03366;P03366 P03366:600-1159,P03366:600-1039)
experimentalProtocol: inhibition; Ki', RNA-dependent DNA polymerase activity
measurementSetup: tags: expressed in E. coli, purified per Davies et al. 1991; label: 5'-32P; internal loop variant (AA opposite AG)
outcomeMeasure: Ki (nM)
Numeric only. Scale: nM

Which Ki is reported for this binder? RT4 (ssDNA) DNA: ATCCGCCTGATTAGCGATACTTTAGCAAAGTTGAAGCCGGACTAACAAGCTCTACGACTTGAGCAAAATCACCTGCAGGGG
4.1
